Each record here notes measured IC50.
# MEASURED_ON: human NaV subtype, like NaV 1.7 (Homo sapiens, UniProt Q15858)
# Sequence (Q15858 whole entry): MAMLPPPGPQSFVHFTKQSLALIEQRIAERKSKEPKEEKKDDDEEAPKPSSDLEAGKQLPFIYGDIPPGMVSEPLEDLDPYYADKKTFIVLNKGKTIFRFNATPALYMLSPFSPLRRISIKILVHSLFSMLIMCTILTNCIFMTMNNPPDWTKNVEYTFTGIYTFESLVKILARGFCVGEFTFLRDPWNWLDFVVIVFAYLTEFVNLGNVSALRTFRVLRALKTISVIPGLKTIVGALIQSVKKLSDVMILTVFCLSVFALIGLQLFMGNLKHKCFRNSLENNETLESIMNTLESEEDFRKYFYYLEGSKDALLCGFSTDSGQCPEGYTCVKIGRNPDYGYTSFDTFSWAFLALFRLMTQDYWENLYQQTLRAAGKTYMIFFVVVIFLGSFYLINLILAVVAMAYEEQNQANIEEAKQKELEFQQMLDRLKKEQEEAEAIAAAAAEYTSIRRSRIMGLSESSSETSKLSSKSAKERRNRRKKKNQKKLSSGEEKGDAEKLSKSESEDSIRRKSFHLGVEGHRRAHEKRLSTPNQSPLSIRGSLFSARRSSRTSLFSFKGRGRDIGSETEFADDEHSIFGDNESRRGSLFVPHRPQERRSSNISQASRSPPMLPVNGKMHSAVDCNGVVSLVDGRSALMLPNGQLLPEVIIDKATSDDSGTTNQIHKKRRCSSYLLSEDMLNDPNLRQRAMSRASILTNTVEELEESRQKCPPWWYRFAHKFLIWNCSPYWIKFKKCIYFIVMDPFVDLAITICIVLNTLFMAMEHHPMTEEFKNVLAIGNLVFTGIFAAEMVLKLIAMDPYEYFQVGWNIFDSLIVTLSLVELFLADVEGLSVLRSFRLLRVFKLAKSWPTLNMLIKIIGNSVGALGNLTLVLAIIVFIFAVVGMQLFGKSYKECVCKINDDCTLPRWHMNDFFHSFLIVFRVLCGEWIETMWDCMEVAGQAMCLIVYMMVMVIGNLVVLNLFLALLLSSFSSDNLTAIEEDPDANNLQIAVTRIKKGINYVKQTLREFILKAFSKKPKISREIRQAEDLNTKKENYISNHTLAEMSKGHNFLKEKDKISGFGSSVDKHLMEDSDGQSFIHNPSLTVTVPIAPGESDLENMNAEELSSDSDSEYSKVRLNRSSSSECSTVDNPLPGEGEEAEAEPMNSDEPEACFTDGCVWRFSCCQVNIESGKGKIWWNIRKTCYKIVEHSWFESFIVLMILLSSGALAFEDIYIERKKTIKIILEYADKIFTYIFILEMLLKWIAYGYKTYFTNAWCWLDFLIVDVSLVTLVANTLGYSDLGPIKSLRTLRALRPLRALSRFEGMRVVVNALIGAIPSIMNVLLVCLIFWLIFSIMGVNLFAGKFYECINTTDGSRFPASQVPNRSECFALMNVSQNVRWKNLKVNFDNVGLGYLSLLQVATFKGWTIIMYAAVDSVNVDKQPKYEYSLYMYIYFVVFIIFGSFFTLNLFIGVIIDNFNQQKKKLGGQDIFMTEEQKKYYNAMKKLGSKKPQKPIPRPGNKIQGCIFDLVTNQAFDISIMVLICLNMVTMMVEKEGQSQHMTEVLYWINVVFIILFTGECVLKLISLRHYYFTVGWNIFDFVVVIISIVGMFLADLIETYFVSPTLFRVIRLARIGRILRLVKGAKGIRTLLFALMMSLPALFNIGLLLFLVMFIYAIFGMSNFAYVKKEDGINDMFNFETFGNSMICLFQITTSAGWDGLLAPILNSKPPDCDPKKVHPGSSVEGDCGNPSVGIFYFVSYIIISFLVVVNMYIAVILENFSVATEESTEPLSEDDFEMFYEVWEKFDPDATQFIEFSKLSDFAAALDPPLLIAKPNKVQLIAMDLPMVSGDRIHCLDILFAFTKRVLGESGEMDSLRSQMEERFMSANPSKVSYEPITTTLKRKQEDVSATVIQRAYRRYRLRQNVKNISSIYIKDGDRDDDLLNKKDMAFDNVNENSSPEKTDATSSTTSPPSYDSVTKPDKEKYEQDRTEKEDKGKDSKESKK
# MEASUREMENT_DESCRIPTION: E-VIPR optical membrane potential assay with electrical stimulation
# CONDITION_DESCRIPTION: active against one or more sodium channels; assay and NaV subtype not specified for Table 3; read-out: IC50 Binned Activity Data

Problem: Fill blank: measured IC50 of the compound COc1cc(C(=O)N2CCC3(CC2)C[C@@H](OC(C)C)c2cc(F)ccc2O3)ccc1C(C)(C)O [Compound 10] is ____.
Result: ≤ 2 µM

Problem: Now the compound COc1cc(C(=O)N2CCC3(CC2)CC(OC(C)C)c2ccccc2O3)ccc1C(C)(C)CO (stereo not drawn) [Compound 62]
Result: ≤ 2 µM

Problem: Now the compound Cc1cc(C(=O)N2CCC3(CC2)C[C@@H](OC(C)C)c2cc(F)cc(F)c2O3)ccc1S(=O)(=O)C(C)C [Compound 27]
Result: ≤ 2 µM

Others:
Problem: Fill blank: measured IC50 of the compound COc1cc(C(=O)N2CCC3(CC2)CC(NC(C)C)c2ccccc2O3)ccc1OC(C)C (stereo not drawn) [Compound 47] is ____.
Result: > 5 µM

Problem: Now the compound CC(C)CS(=O)(=O)c1ccc(C(=O)N2CCC3(CC2)C[C@@H](OC(C)C)c2cc(F)ccc2O3)cc1 [Compound 147]
Result: ≤ 2 µM

Problem: Now the compound Cc1cc(C(=O)N2CCC3(CC2)C[C@H](OC(C)C)c2ccccc2O3)ccc1O [Compound 149]
Result: ≤ 2 µM

Problem: Now the compound Cc1nc(C(=O)N2CCC3(CC2)C[C@@H](OC(C)C)c2cc(F)ccc2O3)ccc1S(=O)(=O)C(C)C [Compound 101]
Result: > 5 µM

Problem: Now the compound COc1cc(C(=O)N2CCC3(CCc4ccccc4O3)CC2)ccc1OC(C)C [Compound 162]
Result: 2 to 5 µM

Problem: Now the compound COc1cc(C(=O)N2CCC3(CC2)CC(OC(C)C)c2ccc(F)cc2O3)ccc1OC(C)C (stereo not drawn) [Compound 25]
Result: ≤ 2 µM

Problem: Now the compound Cc1cc(C(F)F)n2ncc(C(=O)N3CCC4(CC3)C[C@@H](OC(C)C)c3ccccc3O4)c2n1 [Compound 87]
Result: ≤ 2 µM

Problem: Now the compound Cc1cc(C(=O)N2CCC3(CC2)CC(OC(C)C)c2ccccc2O3)ccc1OC(C)C (stereo not drawn) [Compound 141]
Result: ≤ 2 µM

Problem: Now the compound CC(C)O[C@@H]1CC2(CCN(C(=O)c3ccc(NC4(C)COC4)cn3)CC2)Oc2ccc(F)cc21 [Compound 1]
Result: ≤ 2 µM

Problem: Now the compound CC(C)O[C@@H]1CC2(CCN(C(=O)c3ccc(S(=O)(=O)C(C)C)cc3)CC2)Oc2ccc(F)cc21 [Compound 68]
Result: ≤ 2 µM

Problem: Now the compound Cc1cc(S(C)(=O)=O)ccc1C(=O)N1CCC2(CC1)C[C@@H](OC(C)C)c1cc(F)ccc1O2 [Compound 85]
Result: 2 to 5 µM

Problem: Now the compound Cc1cc(C(=O)N2CCC3(CC2)CC(OC(C)C)c2cnccc2O3)ccc1OC(C)C (stereo not drawn) [Compound 89]
Result: 2 to 5 µM

Problem: Now the compound Cc1cc(C(=O)N2CCC3(CC2)CC(OC(C)C)c2cc(C#N)ccc2O3)ccc1C(C)(C)O (stereo not drawn) [Compound 43]
Result: ≤ 2 µM

Problem: Now the compound COC1CCN(c2ccc(C(=O)N3CCC4(CC3)C[C@@H](OC(C)C)c3cc(F)ccc3O4)nc2)CC1 [Compound 41]
Result: ≤ 2 µM

Problem: Now the compound CC(C)O[C@@H]1CC2(CCN(C(=O)c3ccc(N4CCCCC4C)cn3)CC2)Oc2ccc(F)cc21 (stereo partly drawn) [Compound 54]
Result: ≤ 2 µM

Problem: Now the compound COc1cc(C(=O)N2CCC3(CC2)C[C@@H](OC(C)C)c2cc(F)ccc2O3)ccc1C(C)(C)CO [Compound 120]
Result: ≤ 2 µM

Problem: Now the compound CC1CCN(c2ccc(C(=O)N3CCC4(CC3)C[C@@H](OC(C)C)c3cc(F)ccc3O4)nc2)CC1 [Compound 61]
Result: ≤ 2 µM

Problem: Now the compound COc1cc(C(=O)N2CCC3(CC2)C[C@@H](OC(C)C)c2cc(F)ccc2O3)ccc1O[C@@H]1CCOC1 [Compound 155]
Result: ≤ 2 µM

Problem: Now the compound COc1cc(C(=O)N2CCC3(CC2)CC(OC(C)C)c2nn(C(C)(C)C)cc2O3)ccc1OC(C)C (stereo not drawn) [Compound 34]
Result: ≤ 2 µM

Problem: Now the compound COc1cc(C(=O)N2CCC3(CC2)CC(OC(C)C)c2ccccc2S3(=O)=O)ccc1OC(C)C (stereo not drawn) [Compound 81]
Result: ≤ 2 µM

Problem: Now the compound Cc1cc(C(=O)N2CCC3(CC2)CC(OC(C)C)c2nn(C)cc2O3)ccc1OC(C)C (stereo not drawn) [Compound 104]
Result: ≤ 2 µM

Problem: Now the compound CC(C)O[C@@H]1CC2(CCN(C(=O)c3ccc(SC(C)C)cc3)CC2)Oc2ccc(F)cc21 [Compound 53]
Result: ≤ 2 µM

Problem: Now the compound COc1cc(C(=O)N2CCC3(CC2)Oc2ccccc2CC3OC)ccc1OC(C)C (stereo not drawn) [Compound 165]
Result: ≤ 2 µM

###

# MEASURED_ON: human NaV subtype, like NaV 1.7 (Homo sapiens, UniProt Q15858)
# MEASUREMENT_DESCRIPTION: E-VIPR optical membrane potential assay with electrical stimulation
# Type: cell-based
# CONDITION_DESCRIPTION: active against one or more sodium channels; assay and NaV subtype not specified for Table 3; read-out: IC50 Binned Activity Data
pIC50: −log10 of the molar value.
QUANTITY_KIND: pIC50

Problem: Could you share what pIC50 was measured for CC(C)O[C@@H]1CC2(CCN(C(=O)c3ccc(N4CCCC4)cn3)CC2)Oc2ccccc21 [Compound 102] , tested on human NaV subtype, like NaV 1.7 (Homo sapiens, UniProt Q15858)?
Result: < 5.30

Others:
Problem: Could you share what pIC50 was measured for CC(C)Oc1ccc(C(=O)N2CCC3(CC2)C[C@@H](OC(C)C)c2cc(F)ccc2O3)cc1F [Compound 112] , tested on human NaV subtype, like NaV 1.7 (Homo sapiens, UniProt Q15858)?
Result: ≥ 5.70

Problem: Now the molecule CCOC1CC2(CCN(C(=O)c3ccc(OC(C)C)c(OC)c3)CC2)Oc2ccccc21 (stereo not shown) [Compound 12]
Result: ≥ 5.70

Problem: Now the molecule CC(C)OCC1CC2(CCN(C(=O)c3ccc(C(C)(C)O)cc3)CC2)Oc2ccccc21 (stereo not shown) [Compound 35]
Result: ≥ 5.70

###

Each record here notes measured pIC50.
# MEASURED_ON: human NaV subtype, like NaV 1.7 (Homo sapiens, UniProt Q15858)
# MEASUREMENT_DESCRIPTION: E-VIPR optical membrane potential assay with electrical stimulation
# CONDITION_DESCRIPTION: active against one or more sodium channels; assay and NaV subtype not specified for Table 3; read-out: IC50 Binned Activity Data
pIC50: −log10 of the molar value.

Problem: Could you share what pIC50 was measured for CCOCC1CC2(CCN(C(=O)c3ccc(OC(C)C)c(OC)c3)CC2)Oc2ccccc21 (stereo not drawn) , tested on human NaV subtype, like NaV 1.7 (Homo sapiens, UniProt Q15858)?
Result: ≥ 5.70

Problem: Now the compound COc1cc(C(=O)N2CCC3(CC2)Oc2ccccc2CC3OC(C)C)ccc1OC(C)C (stereo not drawn)
Result: ≥ 5.70

Problem: Now the compound COc1cc(C(=O)N2CCC3(CC2)CC(OC(C)(C)C)c2ccccc2O3)ccc1OC(C)C (stereo not drawn)
Result: ≥ 5.70

Others:
Problem: Could you share what pIC50 was measured for CC(C)O[C@@H]1CC2(CCN(C(=O)c3ccc(S(=O)(=O)C(F)(F)F)cc3)CC2)Oc2ccc(F)cc21 , tested on human NaV subtype, like NaV 1.7 (Homo sapiens, UniProt Q15858)?
Result: ≥ 5.70

Problem: Now the compound CC(C)Nc1ccc(C(=O)N2CCC3(CC2)C[C@@H](OC(C)C)c2cc(F)ccc2O3)nc1
Result: ≥ 5.70

Problem: Now the compound CC(C)O[C@@H]1CC2(CCN(C(=O)c3ccc(S(=O)(=O)C4CC4)cc3)CC2)Oc2ccc(F)cc21
Result: ≥ 5.70

Problem: Now the compound COc1cc(C(=O)N2CCC3(CC2)CC(OC)c2ccccc2S3(=O)=O)ccc1OC(C)C (stereo not drawn)
Result: < 5.30

Problem: Now the compound CC(C)O[C@@H]1CC2(CCN(C(=O)c3ccc(N4CC(S(C)(=O)=O)C4)cn3)CC2)Oc2ccc(F)cc21
Result: < 5.30

Problem: Now the compound CC(C)O[C@@H]1CC2(CCN(C(=O)c3cccc4cccnc34)CC2)Oc2ccccc21
Result: ≥ 5.70

Origin of measurements: patent US10385070B2
